- TEST_DESCRIPTION: in vitro
- RUN_PARAMETERS: mouse, hepatocytes, CLint (mouse hepatocytes)
PROPERTY: hepatocyte CLint at 2 h, 2 µM (µL/min/1e6 cells)

1. COc1cccc2[nH]c(C(=O)N[C@@H](Cc3cccc(F)c3)C(=O)N[C@@H](C[C@@H]3CC(=O)NC3=O)C(=O)COc3c(F)c(F)c(CO)c(F)c3F)cc12    156
2. CCCCCCCCCCCCCCCC(=O)N[C@@H](Cc1cccc(F)c1)C(=O)N[C@@H](C[C@@H]1CCNC1=O)C(=O)COc1c(F)c(F)c(CO)c(F)c1F    9.31
3. CC(C)(O)c1c(F)c(F)c(OCC(=O)[C@H](C[C@@H]2CCNC2=O)NC(=O)[C@@H]2[C@@H]3[C@H](CN2C(=O)[C@@H](NC(=O)C(F)(F)F)C(C)(C)C)C3(C)C)c(F)c1F    112
4. COc1cccc2[nH]c(C(=O)N[C@@H](Cc3cccc(F)c3)C(=O)N[C@@H](C[C@@H]3CCNC3=O)C(=O)COc3c(F)c(F)c(F)c(F)c3F)cc12 [compound 16, reference compound]    154
5. COc1cccc2[nH]c(C(=O)N[C@@H](Cc3cccc(F)c3)C(=O)N[C@@H](C[C@@H]3CCNC3=O)C(=O)COc3c(F)c(F)cc(F)c3F)cc12 [compound 15, reference compound]    240
6. COc1cccc2[nH]c(C(=O)N[C@@H](Cc3cccc(F)c3)C(=O)N[C@@H](C[C@@H]3CC(=O)NC3=O)C(=O)COc3c(F)c(F)c(C(C)(C)O)c(F)c3F)cc12    124
7. COc1cccc2[nH]c(C(=O)N[C@@H](Cc3cccc(F)c3)C(=O)N[C@@H](C[C@@H]3CCNC3=O)C(=O)COc3c(F)c(F)c(C(C)(C)O)c(F)c3F)cc12    47.6
8. COc1cccc2[nH]c(C(=O)N[C@@H](Cc3cccc(F)c3)C(=O)N[C@@H](C[C@@H]3CC(=O)NC3=O)C(=O)COc3c(F)c(F)c(C(C)O)c(F)c3F)cc12 (stereo partly shown)    134
9. COc1cccc2[nH]c(C(=O)N[C@@H](Cc3cccc(F)c3)C(=O)N[C@@H](CCn3cn[nH]c3=O)C(=O)COc3c(F)c(F)c(C(C)(C)O)c(F)c3F)cc12    78.8
10. CCCCCCCC(=O)N[C@@H](Cc1cccc(F)c1)C(=O)N[C@@H](C[C@@H]1CCNC1=O)C(=O)COc1c(F)c(F)c(CO)c(F)c1F    206
11. O=C(N[C@@H](Cc1c[nH]c2ccccc12)C(=O)N[C@@H](C[C@@H]1CCNC1=O)C(=O)COc1c(F)c(F)c(CO)c(F)c1F)c1cc2ccccc2[nH]1    182
12. COc1cccc2[nH]c(C(=O)N[C@@H](Cc3cccc(F)c3)C(=O)N[C@@H](C[C@@H]3CCNC3=O)C(=O)COc3c(F)c(F)c(C(C)O)c(F)c3F)cc12 (stereo partly shown)    64.5
13. COc1cccc2[nH]c(C(=O)N[C@@H](Cc3cccc(F)c3)C(=O)N[C@@H](C[C@@H]3CCNC3=O)C(=O)COc3c(F)c(F)c(CO)c(F)c3F)cc12    186

---

- TEST_DESCRIPTION: in vitro
- RUN_PARAMETERS: hamster, hepatocytes, % remaining at 120 min (hamster hepatocytes, compound/ritonavir 1:1)
Please note: remaining at 2 h, 1 µM exactly at 10% is FALSE. Only values below 10% get TRUE.

1) CC(C)(O)c1c(F)c(F)c(OCC(=O)[C@H](C[C@@H]2CCNC2=O)NC(=O)[C@@H]2[C@@H]3[C@H](CN2C(=O)[C@@H](NC(=O)C(F)(F)F)C(C)(C)C)C3(C)C)c(F)c1F [compound 14]    FALSE
2) COc1cccc2[nH]c(C(=O)N[C@@H](Cc3cccc(F)c3)C(=O)N[C@@H](C[C@@H]3CCNC3=O)C(=O)COc3c(F)c(F)c(C(C)(C)O)c(F)c3F)cc12 [compound 10]    FALSE
3) COc1cccc2[nH]c(C(=O)N[C@@H](Cc3cccc(F)c3)C(=O)N[C@@H](C[C@@H]3CCNC3=O)C(=O)COc3c(F)c(F)c(C(C)O)c(F)c3F)cc12 (some centres unmarked) [compound 8]    TRUE
4) CC(C)(C)[C@H](NC(=O)C(F)(F)F)C(=O)N1C[C@H]2[C@@H]([C@H]1C(=O)N[C@@H](C[C@@H]1CCNC1=O)C(=O)COc1c(F)c(F)c(CO)c(F)c1F)C2(C)C [compound 7]    FALSE
5) COc1cccc2[nH]c(C(=O)N[C@@H](Cc3cccc(F)c3)C(=O)N[C@@H](C[C@@H]3CCNC3=O)C(=O)COc3c(F)c(F)c(CO)c(F)c3F)cc12 [compound 1]    TRUE
